- TEST_TARGET: human V1a receptor (Homo sapiens, UniProt P37288)
- Construct: expressed in transfected cells; host or cells: CHO K1 (Chinese hamster ovary), also stably transfected with a modified aequorin
- Sequence (P37288 whole entry): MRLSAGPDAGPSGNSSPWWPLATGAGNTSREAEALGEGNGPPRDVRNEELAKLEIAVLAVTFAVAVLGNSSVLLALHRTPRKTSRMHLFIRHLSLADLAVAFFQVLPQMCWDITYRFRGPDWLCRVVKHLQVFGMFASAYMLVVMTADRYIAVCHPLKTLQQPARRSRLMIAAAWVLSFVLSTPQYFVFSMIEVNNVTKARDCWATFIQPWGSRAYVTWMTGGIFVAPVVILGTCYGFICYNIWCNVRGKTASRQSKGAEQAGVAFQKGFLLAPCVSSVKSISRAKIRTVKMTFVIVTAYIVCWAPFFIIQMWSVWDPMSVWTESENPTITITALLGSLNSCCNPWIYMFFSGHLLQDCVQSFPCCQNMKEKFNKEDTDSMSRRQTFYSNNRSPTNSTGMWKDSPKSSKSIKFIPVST
- PROTOCOL_DETAILS: Cellular in vitro assay for vasopressin receptor activity (V1a, aequorin luminescence)
- Type: cell-based
- ASSAY_CONDITIONS: CHO cell line with human V1a receptor, [Arg8]-vasopressin at EC50; values are for the prodrug as such; read-out: IC50 hV1a
Please use the following IC50 ranges when assigning a class: low range: < 10 nM; mid range: ≥ 10 nM and < 30 nM; high range: ≥ 30 nM

{"columns": ["COMPOUND", "LABEL_CLASS"],
 "data": [
  ["NC(=O)c1nc(Cn2nc(-c3ccc(Cl)cc3)n(C[C@H](OP(=O)([O-])O)C(F)(F)F)c2=O)nn1-c1ccccc1C(F)(F)F.[Na+] [Example 13, Phosphate]", "mid range"],
  ["NC(=O)c1nc(Cn2nc(-c3ccc(Cl)cc3)n(C[C@H](OP(=O)([O-])O)C(F)(F)F)c2=O)nn1-c1ncccc1C(F)(F)F.[Na+] [Example 5, Phosphate]", "low range"],
  ["NC(=O)c1nc(Cn2nc(-c3ccc(Cl)cc3)n(C[C@H](OP(=O)(O)O)C(F)(F)F)c2=O)nn1-c1ccccc1C(F)(F)F", "mid range"],
  ["NC(=O)c1nc(Cn2nc(-c3ccc(Cl)cc3)n(C[C@H](OP(=O)([O-])O)C(F)(F)F)c2=O)nn1-c1ncccc1C(F)(F)F.[Li+] [Example 6, Phosphate]", "mid range"],
  ["NC(=O)c1nc(Cn2nc(-c3ccc(Cl)cc3)n(C[C@H](OP(=O)([O-])[O-])C(F)(F)F)c2=O)nn1-c1ccccc1C(F)(F)F.[Mg+2] [Example 15, Phosphate]", "mid range"],
  ["NC(=O)c1nc(Cn2nc(-c3ccc(Cl)cc3)n(C[C@H](OP(=O)([O-])[O-])C(F)(F)F)c2=O)nn1-c1ccccc1C(F)(F)F.[Ca+2] [Example 16, Phosphate]", "mid range"],
  ["NC(=O)c1nc(Cn2nc(-c3ccc(Cl)cc3)n(C[C@H](OP(=O)([O-])O)C(F)(F)F)c2=O)nn1-c1ncccc1C(F)(F)F.[Na+] [Example 4, Phosphate]", "mid range"],
  ["NC(=O)c1nc(Cn2nc(-c3ccc(Cl)cc3)n(C[C@H](OP(=O)([O-])O)C(F)(F)F)c2=O)nn1-c1ncccc1C(F)(F)F.[Li+] [Example 7, Phosphate]", "low range"],
  ["NC(=O)c1nc(Cn2nc(-c3ccc(Cl)cc3)n(C[C@H](OP(=O)([O-])[O-])C(F)(F)F)c2=O)nn1-c1ncccc1Cl.[Ca+2] [Example 23, Phosphate]", "mid range"],
  ["NC(=O)c1nc(Cn2nc(-c3ccc(Cl)cc3)n(C[C@H](OP(=O)([O-])O)C(F)(F)F)c2=O)nn1-c1ccccc1C(F)(F)F.[K+] [Example 11, Phosphate]", "high range"],
  ["NC(=O)c1nc(Cn2nc(-c3ccc(Cl)cc3)n(C[C@H](OP(=O)([O-])[O-])C(F)(F)F)c2=O)nn1-c1ncccc1Cl.[Mg+2] [Example 22, Phosphate]", "high range"]
]}
